- assay-details: small-molecule microarray binders of probe aNog, primary screen, biochemical, biotinylated probe, 635/667 nm fluorescence (AID 1115);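 also: probe is biotinylated aNog protein used at 0.15 µg/mL for 1 h at 4 C; z-score combines 667 nm fluorescence of each spot with its signal to noise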
- settings: higher = more signal
Tick 1 if composite z-score is -0.04 or greater. Tick -1 if composite z-score is less than -0.04.

Confirm if composite z-score reported for the compound CC(CCN1CCCCc2nc(C)c(C)cc21)=NO[C@@H](C)c1cc(-c2c(C)cc(C)cc2C)no1 is -0.04 or above.
-1

Please answer likewise for CCOC(=O)CCN1C(=O)[C@H]2[C@H]3[C@H](O)[C@H](O)CC(=NNC(=O)OCc4ccc(OC)cc4)[C@H]3CC[C@H]2C1=O
1

Another compound to look at: CC(=O)OC[C@H]1O[C@@H](ON=C(C)CCN2CCCCc3nc(C)c(C)cc32)[C@H](OC(C)=O)[C@@H](OC(C)=O)[C@@H]1OC(C)=O
1

Then CCOC(=O)[C@H](Cc1ccccc1)NC(=O)CCC1CC(OC(=O)NCc2ccc3c(c2)OCO3)CC2(CCCC(COC(=O)NCCOc3ccccc3)O2)O1 (stereo not given in full) ?
1

Would you mind doing CO[C@H]1C[C@@H]2C[C@H](O)CC(CC(=O)O[C@@H](C=CCC(C)C)C[C@@H]3CC[C@H](C)[C@@H](C1)O3)O2 as well?
-1

Another compound to check: CC(=O)OC[C@H]1O[C@H](CC=NO[C@@H](C)c2cc(-c3c(C)cc(C)cc3C)no2)C=C[C@@H]1OC(C)=O
-1

Next: CC1(C)O[C@H]2O[C@H]([C@H](O)CON=C3[C@H]4CCn5c(=O)n(-c6ccccc6)c(=O)n5[C@H]4[C@H](O)[C@@H]4O[C@H]34)[C@H](O)[C@H]2O1
1

CC(C)=CCCC(C)=CCON=C1C[C@@H](O)[C@@H](O)[C@@H]2[C@@H]3C(=O)N(Cc4ccc5c(c4)OCO5)C(=O)[C@@H]3CC[C@H]12 ?
-1

Try this compound too: CC(CCC(=O)OC[C@H]1O[C@H](C#Cc2ccccc2)C=C[C@@H]1Oc1ccc(C)cc1)=NO[C@H](C)c1cn([C@@H]2COC[C@H]2O)nn1
1

# iterate: COC(=O)[C@H](C)NC(=O)CCC1CC(OC(=O)NCCc2ccc(F)cc2)CC2(CCCC(COC(=O)NCc3ccccc3)O2)O1 (stereo not given in full)
-1

Same question for CC(CCC(=O)OC[C@H]1O[C@H](C#Cc2ccccc2)C=C[C@@H]1Oc1ccc(C)cc1)=NOC(C)CN1CCCCc2nc(C)c(C)cc21 (stereo not given in full) please.
-1

Item: CON=C(C)CCN1CCCCc2nc(C)c(C)cc21
-1

Continue with CCN1C(=O)[C@H]2[C@H]3[C@H](O)[C@H](O)CC(=NOC[C@@H](O)[C@H]4O[C@@H]5OC(C)(C)O[C@@H]5[C@H]4O)[C@@H]3CC[C@H]2C1=O
-1

Ok, now COc1ccc(OC[C@@H](CO)OC)cc1
-1

Next: CSCC[C@@H]1NC(=O)CC=C[C@@H](C)COC(=O)[C@H](C)COC1=O
-1

###

- assay-details: MM1S myeloma cell viability, profiling panel, resazurin fluorescence, basal, 24 h, PK04 Diversity Set (AID 1174);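 also: MM1S multiple myeloma cell line; test concentration not given here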
- settings: higher = more signal, called active from +8 up or from −8 down
Calls of active or inactive are those of the source.
measurement-name: z-score

z-score lookup needed for COC(=O)CC=C[C@@H](C)[C@@H](C=NOC[C@@H](O)COCc1ccco1)OC , thanks.
-0.45 (inactive)

Also C[C@@H]1CC[C@H]2C(=O)O[C@@H](CN=[N+]=[N-])CN2[C@H]1c1ccc(Br)cc1 ?
-0.74 (inactive)

// same read-out, input: O=C(NN=C1C[C@@H](O)[C@@H](O)[C@@H]2[C@@H]3C(=O)N(Cc4ccccc4)C(=O)[C@@H]3CC[C@H]12)OCc1ccccc1
1.14 (inactive)

Now try COC(=O)CC=C1c2ccccc2[C@H](OC)[C@H]1C .
-0.788 (inactive)

And for COC(=O)[C@@H]1CC[C@H](C)[C@@H](c2ccc(Br)cc2)N1 ?
0.176 (inactive)

How about CCOC(=O)[C@H](Cc1ccccc1)NC(=O)CCC1CC(OC(=O)NCc2ccc3c(c2)OCO3)CC2(CCCC(COC(=O)NCCOc3ccccc3)O2)O1 (stereo partly drawn) ?
0.975 (inactive)

Can you check COCOc1ccc(Br)cc1C(=O)C=Cc1ccc2c(c1)OCO2 next?
-3.86 (inactive)

Note, next up: C#CCCCON=C1[C@H]2CCn3c(=O)n(Cc4cc5c(cc4Cl)OCO5)c(=O)n3[C@H]2[C@H](O)[C@@H]2O[C@H]12
-0.16 (inactive)
